# conditionsUsed: in n-butanol, 273.15 K
quantityKind: solubility (mole fraction)
Number, no unit, nothing else.

Value of solubility (mole fraction) reported for the compound CCN(CC)C(=S)SSC(=S)N(CC)CC is 0.00109

----------
# conditionsUsed: in ethyl acetate, 318.15 K
quantityKind: solubility (mole fraction)
Number, no unit, nothing else.

Value of solubility (mole fraction) reported for the molecule CCN(CC)C(=S)SSC(=S)N(CC)CC is 0.143

----------
# conditionsUsed: in n-propanol, 283.15 K
quantityKind: solubility (mole fraction)
Number, no unit, nothing else.

Value of solubility (mole fraction) reported for the compound CCN(CC)C(=S)SSC(=S)N(CC)CC is 0.00167

----------
# conditionsUsed: in THF, 293.15 K
quantityKind: solubility (mole fraction)

Value of solubility (mole fraction) reported for the molecule CCN(CC)C(=S)SSC(=S)N(CC)CC is 0.111

----------
# conditionsUsed: in n-propanol, 308.15 K
quantityKind: solubility (mole fraction)

Value of solubility (mole fraction) reported for the molecule CCN(CC)C(=S)SSC(=S)N(CC)CC is 0.00797

----------
# conditionsUsed: in ethanol, 283.15 K
quantityKind: solubility (mole fraction)
Number, no unit, nothing else.

Value of solubility (mole fraction) reported for the compound CCN(CC)C(=S)SSC(=S)N(CC)CC is 0.00143

----------
# conditionsUsed: in ethanol, 303.15 K
quantityKind: solubility (mole fraction)
Number, no unit, nothing else.

Value of solubility (mole fraction) reported for the molecule CCN(CC)C(=S)SSC(=S)N(CC)CC is 0.00466

----------
# conditionsUsed: in ethyl acetate, 303.15 K
quantityKind: solubility (mole fraction)
Number, no unit, nothing else.

Value of solubility (mole fraction) reported for the molecule CCN(CC)C(=S)SSC(=S)N(CC)CC is 0.0571

----------
# conditionsUsed: in ethyl acetate, 273.15 K
quantityKind: solubility (mole fraction)
Number, no unit, nothing else.

Value of solubility (mole fraction) reported for the molecule CCN(CC)C(=S)SSC(=S)N(CC)CC is 0.00709

----------
# conditionsUsed: in dichloromethane, 308.15 K
quantityKind: solubility (mole fraction)
Number, no unit, nothing else.

Value of solubility (mole fraction) reported for the compound CCN(CC)C(=S)SSC(=S)N(CC)CC is 0.229

----------
# conditionsUsed: in isobutanol, 288.15 K
quantityKind: solubility (mole fraction)
Number, no unit, nothing else.

Value of solubility (mole fraction) reported for the compound CCN(CC)C(=S)SSC(=S)N(CC)CC is 0.00198

----------
# conditionsUsed: in isobutanol, 303.15 K
quantityKind: solubility (mole fraction)
Number, no unit, nothing else.

Value of solubility (mole fraction) reported for the compound CCN(CC)C(=S)SSC(=S)N(CC)CC is 0.0052

----------
# conditionsUsed: in acetonitrile, 293.15 K
quantityKind: solubility (mole fraction)
Number, no unit, nothing else.

Value of solubility (mole fraction) reported for the compound CCN(CC)C(=S)SSC(=S)N(CC)CC is 0.041

----------
# conditionsUsed: in acetonitrile, 278.15 K
quantityKind: solubility (mole fraction)
Number, no unit, nothing else.

Value of solubility (mole fraction) reported for the compound CCN(CC)C(=S)SSC(=S)N(CC)CC is 0.0174

----------
# conditionsUsed: in isopropanol, 288.15 K
quantityKind: solubility (mole fraction)
Number, no unit, nothing else.

Value of solubility (mole fraction) reported for the compound CCN(CC)C(=S)SSC(=S)N(CC)CC is 0.00133
